Values compiled from patent US4568490A.

System: ICR mice
Assay: Pulmonary toxicity (pulmonary fibrosis) in mice, intratracheal instillation
Format: in vivo
Conditions: 16 μg/50 μl/mouse intratracheally; sacrificed 4 weeks after instillation
endpoint_label: Grade of pulmonary fibrosis, % (%)
Respond with the bare value in %.

Known Grade of pulmonary fibrosis, % results, listed for orientation:
1. Cc1c(N)nc(C(CC(N)=O)NCC(N)C(N)=O)nc1C(=O)NC(C(=O)NC(C)C(O)C(C)C(=O)NC(C(=O)NCCc1nc(-c2nc(C(=O)NCCCN(C)CCCN(Cc3ccccc3)Cc3ccccc3)cs2)cs1)C(C)O)C(OC1OC(CO)C(O)C(O)C1OC1OC(CO)C(O)C(OC(N)=O)C1O)c1cnc[nH]1 (stereo not shown)
7
2. Cc1c(N)nc(C(CC(N)=O)NCC(N)C(N)=O)nc1C(=O)NC(C(=O)NC(C)C(O)C(C)C(=O)NC(C(=O)NCCc1nc(-c2nc(C(=O)NCCCNC(C)c3ccccc3)cs2)cs1)C(C)O)C(OC1OC(CO)C(O)C(O)C1OC1OC(CO)C(O)C(OC(N)=O)C1O)c1c[nH]cn1 (stereo not shown) [PEP, reference compound]
150
3. Cc1c(N)nc(C(CC(N)=O)NCC(N)C(N)=O)nc1C(=O)NC(C(=O)NC(C)C(O)C(C)C(=O)NC(C(=O)NCCc1nc(-c2nc(C(=O)NCCCN(C)CCCNCc3ccc(Cl)cc3Cl)cs2)cs1)C(C)O)C(OC1OC(CO)C(O)C(O)C1OC1OC(CO)C(O)C(OC(N)=O)C1O)c1cnc[nH]1 (stereo not shown)
25
4. Cc1c(N)nc(C(CC(N)=O)NCC(N)C(N)=O)nc1C(=O)NC(C(=O)NC(C)C(O)C(C)C(=O)NC(C(=O)NCCc1nc(-c2nc(C(=O)NCCC[N+](C)(C)CCCN(Cc3ccccc3)Cc3ccccc3)cs2)cs1)C(C)O)C(OC1OC(CO)C(O)C(O)C1OC1OC(CO)C(O)C(OC(N)=O)C1O)c1cnc[nH]1 (stereo not shown)
8
5. Cc1c(N)nc(C(CC(N)=O)NCC(N)C(N)=O)nc1C(=O)NC(C(=O)NC(C)C(O)C(C)C(=O)NC(C(=O)NCCc1nc(-c2nc(C(=O)NCCCN(C)CCCNC(C)c3ccc(Cl)cc3)cs2)cs1)C(C)O)C(OC1OC(CO)C(O)C(O)C1OC1OC(CO)C(O)C(OC(N)=O)C1O)c1cnc[nH]1 (stereo not shown)
24

Ask: Any idea what Grade of pulmonary fibrosis, % came out for Cc1c(N)nc(C(CC(N)=O)NCC(N)C(N)=O)nc1C(=O)NC(C(=O)NC(C)C(O)C(C)C(=O)NC(C(=O)NCCc1nc(-c2nc(C(=O)NCCCN(C)CCCNCc3ccc(OCc4ccccc4)c(OCc4ccccc4)c3)cs2)cs1)C(C)O)C(OC1OC(CO)C(O)C(O)C1OC1OC(CO)C(O)C(OC(N)=O)C1O)c1cnc[nH]1 (stereo not shown) on ICR mice?
Result: 4

Ask: Tell me reported Grade of pulmonary fibrosis, % for Cc1c(N)nc(C(CC(N)=O)NCC(N)C(N)=O)nc1C(=O)NC(C(=O)NC(C)C(O)C(C)C(=O)NC(C(=O)NCCc1nc(-c2nc(C(=O)NCCCN(C)CCCNCC(c3ccccc3)c3ccccc3)cs2)cs1)C(C)O)C(OC1OC(CO)C(O)C(O)C1OC1OC(CO)C(O)C(OC(N)=O)C1O)c1cnc[nH]1 (stereo not shown) , tested with ICR mice.
Result: 7

* * *

This section presents compounds with their documented Incidence: number of mice with pulmonary fibrosis/number of mice values.
System: ICR mice
Experiment: Pulmonary toxicity (pulmonary fibrosis) in mice, intratracheal instillation
Assay type: in vivo
Conditions: 16 μg/50 μl/mouse intratracheally; sacrificed 4 weeks after instillation

Check out these entries, answers already filled in.
1) Cc1c(N)nc(C(CC(N)=O)NCC(N)C(N)=O)nc1C(=O)NC(C(=O)NC(C)C(O)C(C)C(=O)NC(C(=O)NCCc1nc(-c2nc(C(=O)NCCCN(C)CCCNCc3ccc(Cl)cc3Cl)cs2)cs1)C(C)O)C(OC1OC(CO)C(O)C(O)C1OC1OC(CO)C(O)C(OC(N)=O)C1O)c1cnc[nH]1 (centres unmarked)
2/8
2) Cc1c(N)nc(C(CC(N)=O)NCC(N)C(N)=O)nc1C(=O)NC(C(=O)NC(C)C(O)C(C)C(=O)NC(C(=O)NCCc1nc(-c2nc(C(=O)NCCCN(C)CCCNCC(c3ccccc3)c3ccccc3)cs2)cs1)C(C)O)C(OC1OC(CO)C(O)C(O)C1OC1OC(CO)C(O)C(OC(N)=O)C1O)c1cnc[nH]1 (centres unmarked)
2/9
3) Cc1c(N)nc(C(CC(N)=O)NCC(N)C(N)=O)nc1C(=O)NC(C(=O)NC(C)C(O)C(C)C(=O)NC(C(=O)NCCc1nc(-c2nc(C(=O)NCCCNC(C)c3ccccc3)cs2)cs1)C(C)O)C(OC1OC(CO)C(O)C(O)C1OC1OC(CO)C(O)C(OC(N)=O)C1O)c1c[nH]cn1 (centres unmarked) [PEP, reference compound]
6/8
4) COc1ccc(CNCCCN(C)CCCNC(=O)c2csc(-c3csc(CCNC(=O)C(NC(=O)C(C)C(O)C(C)NC(=O)C(NC(=O)c4nc(C(CC(N)=O)NCC(N)C(N)=O)nc(N)c4C)C(OC4OC(CO)C(O)C(O)C4OC4OC(CO)C(O)C(OC(N)=O)C4O)c4cnc[nH]4)C(C)O)n3)n2)c(OC)c1 (centres unmarked)
2/9

Query compound follows.
Ask: GET /values?readout=Incidence: number of mice with pulmonary fibrosis/number of mice&system=ICR mice&item= Cc1c(N)nc(C(CC(N)=O)NCC(N)C(N)=O)nc1C(=O)NC(C(=O)NC(C)C(O)C(C)C(=O)NC(C(=O)NCCc1nc(-c2nc(C(=O)NCCCN(C)CCCNCc3ccc(OCc4ccccc4)c(OCc4ccccc4)c3)cs2)cs1)C(C)O)C(OC1OC(CO)C(O)C(O)C1OC1OC(CO)C(O)C(OC(N)=O)C1O)c1cnc[nH]1 (centres unmarked)
Result: 1/8
